Reported values: pIC50 for TRAF2 and NCK-interacting protein kinase (Homo sapiens, UniProt Q9UKE5), one per item.
pIC50: −log10 of the molar value.
Measured Metric: pIC50

>>> df
                                   compound  measured_metric  operator  quantitative_readout
0  CC(C)n1cnc(-c2ccc(F)cc2)c1-c1nc(C(=O)Nc2ccc(N3CCN(CCO)CC3)cc2)c[nH]1            pIC50         =                  7.68
1  CC(C)n1cnc(-c2ccc(F)cc2)c1-c1nc(C(=O)Nc2ccc(CCCCC(=O)O)cc2)c[nH]1            pIC50         =                  7.29
2  CC(C)n1cnc(-c2ccc(C(F)(F)F)cc2)c1-c1nc(C(=O)Nc2ccc(N3CCN(C)CC3)cc2)c[nH]1            pIC50         <                  5.00
3  CC(C)n1cnc(-c2ccc(F)c(F)c2)c1-c1nc(C(=O)Nc2ccc(N3CCN(C)CC3)cc2)c[nH]1            pIC50         =                  7.29

----------
Target: TRAF2 and NCK-interacting protein kinase (Homo sapiens, UniProt Q9UKE5)
Sequence (Q9UKE5 whole entry): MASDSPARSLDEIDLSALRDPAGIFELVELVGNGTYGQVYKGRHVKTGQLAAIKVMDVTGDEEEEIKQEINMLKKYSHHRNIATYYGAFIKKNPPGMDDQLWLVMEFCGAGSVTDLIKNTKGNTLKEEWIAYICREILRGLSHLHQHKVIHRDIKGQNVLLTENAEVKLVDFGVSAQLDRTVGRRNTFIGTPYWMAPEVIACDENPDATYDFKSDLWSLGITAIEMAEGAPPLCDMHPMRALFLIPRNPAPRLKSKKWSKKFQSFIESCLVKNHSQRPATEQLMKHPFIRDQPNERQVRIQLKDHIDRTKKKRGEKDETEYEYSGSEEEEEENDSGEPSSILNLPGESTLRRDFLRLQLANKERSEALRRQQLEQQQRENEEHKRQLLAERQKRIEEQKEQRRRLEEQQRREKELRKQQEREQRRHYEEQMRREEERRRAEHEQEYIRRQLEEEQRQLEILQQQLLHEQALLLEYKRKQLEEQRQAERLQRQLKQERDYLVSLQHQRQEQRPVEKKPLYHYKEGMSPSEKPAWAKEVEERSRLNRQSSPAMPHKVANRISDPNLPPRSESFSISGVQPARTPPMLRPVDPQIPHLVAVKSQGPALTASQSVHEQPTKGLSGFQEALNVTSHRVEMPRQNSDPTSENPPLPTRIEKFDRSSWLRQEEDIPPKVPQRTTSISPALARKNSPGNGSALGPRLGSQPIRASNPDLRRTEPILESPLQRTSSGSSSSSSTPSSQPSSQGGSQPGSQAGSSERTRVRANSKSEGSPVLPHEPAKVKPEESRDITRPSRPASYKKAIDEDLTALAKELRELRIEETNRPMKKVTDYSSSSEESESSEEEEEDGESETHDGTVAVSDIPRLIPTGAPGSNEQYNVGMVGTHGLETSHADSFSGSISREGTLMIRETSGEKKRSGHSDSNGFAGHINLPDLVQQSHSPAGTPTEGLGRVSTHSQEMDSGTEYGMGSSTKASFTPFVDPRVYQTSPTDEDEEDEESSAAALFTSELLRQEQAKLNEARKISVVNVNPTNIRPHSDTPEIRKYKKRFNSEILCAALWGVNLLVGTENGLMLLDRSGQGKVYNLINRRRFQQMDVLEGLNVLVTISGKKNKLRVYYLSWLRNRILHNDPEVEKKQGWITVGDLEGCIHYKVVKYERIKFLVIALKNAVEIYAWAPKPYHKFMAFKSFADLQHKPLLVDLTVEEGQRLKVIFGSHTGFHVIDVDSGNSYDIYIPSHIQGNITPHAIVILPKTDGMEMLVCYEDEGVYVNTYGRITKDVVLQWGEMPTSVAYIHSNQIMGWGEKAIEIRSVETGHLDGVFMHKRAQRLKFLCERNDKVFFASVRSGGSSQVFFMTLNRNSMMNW
# if measured IC50 < 10 nM: T  # else: F

>>> df
                                   compound  category
0  CC(C)n1cnc(-c2ccc(F)cc2)c1-c1nc(C(=O)Nc2ccc(N3CCN(S(N)(=O)=O)CC3)cc2)c[nH]1         F
1  CC(C)n1cnc(-c2ccc(F)cc2)c1-c1nc(C(=O)Nc2ccc(N3CC[N+](C)([O-])CC3)cc2)c[nH]1         F
2  CC(C)n1cnc(-c2ccc(F)cc2)c1-c1nc(C(=O)Nc2ccc(N3CCN(CC(F)(F)F)CC3)cc2)c[nH]1         F
3  CC(C)n1cnc(-c2ccc(F)cc2)c1-c1nc(C(=O)Nc2ccc(CCC(=O)O)cc2)c[nH]1         F
4  CC(C)n1cnc(-c2ccc(F)cc2)c1-c1nc(C(=O)Nc2ccc(N3CC4CCC(C3)N4C)cc2)c[nH]1         T
5  CC(C)n1cnc(-c2ccc(F)cc2)c1-c1cccc(C(=O)Nc2ccc(CCC(=O)O)cc2)n1         T
6  CC(C)n1cnc(-c2ccc(F)cc2)c1-c1ccc(C(=O)Nc2ccc(N3CCN(C)CC3)cc2)o1         F
7  CC(C)n1cnc(-c2ccc(F)cc2)c1-c1nc(C(=O)Nc2ccc(N3CCN(C)C(=O)C3)cc2)c[nH]1         F

----------
Assay: in vitro
Conditions: human, lx-2
Quick reference for IC50 at 72 h among some compounds
Measured Metric: IC50 at 72 h

In [3]: df
Out[3]:
                                   compound    result
0  CC(C)n1cnc(-c2ccc(F)cc2)c1-c1nc(C(=O)Nc2ccc(N3CCN(C)C(=O)C3)cc2)c[nH]1  > 100 µM
1  CC(=O)N1CCN(c2ccc(NC(=O)c3c[nH]c(-c4c(-c5ccc(F)cc5)ncn4C(C)C)n3)cc2)CC1  > 100 µM
2  CC(C)n1cnc(-c2ccc(F)cc2)c1-c1nc(C(=O)Nc2ccc(N3CC[N+](C)([O-])CC3)cc2)c[nH]1  > 100 µM
3  CC(C)n1cnc(-c2ccc(F)cc2)c1-c1nc(C(=O)Nc2ccc(CCCCC(=O)O)cc2)c[nH]1  > 100 µM
4  CC(C)n1cnc(-c2ccc(F)cc2)c1-c1nc(C(=O)Nc2ccc(N3CC4CCC(C3)N4C)cc2)c[nH]1   22.6 µM

----------
The following are reported pIC50 results, target or system TRAF2 and NCK-interacting protein kinase (Homo sapiens, UniProt Q9UKE5).
pIC50: −log10 of the molar value.
Measured Metric: pIC50

>>> df
                                   compound  measured_metric  quantitative_readout
0  CC(C)n1cnc(-c2ccc(F)cc2)c1-c1cccc(C(=O)Nc2ccc(N3CCN(C)CC3)cc2)n1            pIC50                  8.23
1  CC(C)n1cnc(-c2ccc(F)cc2)c1-c1ccc(C(=O)Nc2ccc(CCO)cc2)o1            pIC50                  7.40
2  CC(C)n1cnc(-c2ccc(Cl)cc2)c1-c1nc(C(=O)Nc2ccc(N3CCN(C)CC3)cc2)c[nH]1            pIC50                  7.15
3  CC(C)n1cnc(-c2ccc(F)cc2)c1-c1cccc(C(=O)Nc2ccc(N3CCN(CCO)CC3)cc2)n1            pIC50                  8.28

----------
Please consider the recorded IC50 for TRAF2 and NCK-interacting protein kinase (Homo sapiens, UniProt Q9UKE5) in what follows.
Measured Metric: IC50

>>> print(df.to_string())
                                   compound   result
0  CC(C)n1cnc(-c2ccc(F)cc2)c1-c1nc(C(=O)Nc2ccc(N(CCO)CCO)cc2)c[nH]1  79.1 nM
1  CC(C)n1cnc(-c2ccc(F)cc2)c1-c1nc(C(=O)Nc2ccc(C(=O)O)cc2)c[nH]1   149 nM
2  CC(C)n1cnc(-c2ccc(F)cc2)c1-c1nc(C(=O)Nc2ccc(CCO)cc2)c[nH]1   9.5 nM
3  CC(=O)N1CCN(c2ccc(NC(=O)c3c[nH]c(-c4c(-c5ccc(F)cc5)ncn4C(C)C)n3)cc2)CC1     6 nM

----------
Assay: Metabolic stability in mouse liver microsomes assessed as intrinsic clearance preincubated for 60 mins followed by NADPH addition and measured after 5 to 60 mins by LC-MS/MS analysis
Format: ADME, Microsome
Conditions: time 65-120 min, read-out: CLH
Measured Metric: microsomal CLint (µL/min/mg)

                                   compound  operator  quantitative_readout
0  CC(C)n1cnc(-c2ccc(F)cc2)c1-c1cccc(C(=O)Nc2ccc(N3CCN(C)CC3)cc2)n1         =                   122
1  CC(C)n1cnc(-c2ccc(F)cc2)c1-c1ccc(C(=O)Nc2ccc(CCO)cc2)o1         >                   150
2  CC(C)n1cnc(-c2ccc(F)cc2)c1-c1cccc(C(=O)Nc2ccc(CCO)cc2)n1         =                   124
3  CC(C)n1cnc(-c2ccc(F)cc2)c1-c1cccc(C(=O)Nc2ccc(CCC(=O)O)cc2)n1         <                   9.6
4  CC(C)n1cnc(-c2ccc(F)cc2)c1-c1cccc(C(=O)Nc2ccc(N3CCN(CCO)CC3)cc2)n1         =                  69.5
5  CC(C)n1cnc(-c2ccc(F)cc2)c1-c1ccc(C(=O)Nc2ccc(N3CCN(C)CC3)cc2)o1         >                   150

----------
Recorded pIC50 values for a group of compounds are listed next.
Test system: LX-2
Assay: cells
Details: Homo sapiens
pIC50: −log10 of the molar value.
Measured Metric: pIC50

In [3]: df
Out[3]:
                                   compound  operator  quantitative_readout
0  CC(C)n1cnc(-c2ccc(F)cc2)c1-c1nc(C(=O)Nc2ccc(N3CC[N+](C)([O-])CC3)cc2)c[nH]1         <                  5.00
1  CC(C)n1cnc(-c2ccc(F)cc2)c1-c1nc(C(=O)Nc2ccc(CCC(=O)O)cc2)c[nH]1         <                  5.00
2  CC(C)n1cnc(-c2ccc(F)cc2)c1-c1nc(C(=O)Nc2ccc(CCCCC(=O)O)cc2)c[nH]1         <                  5.00
3  CC(C)n1cnc(-c2ccc(F)cc2)c1-c1nc(C(=O)Nc2ccc(N3CCN(CCO)CC3)cc2)c[nH]1         =                  6.79
4  CC(=O)N1CCN(c2ccc(NC(=O)c3c[nH]c(-c4c(-c5ccc(F)cc5)ncn4C(C)C)n3)cc2)CC1         =                  6.24

----------
Assay: in vitro
Settings: human, lx-2
Catalogue of IC50 at 72 h readings, one per entry.
Measured Metric: IC50 at 72 h

In [3]: df
Out[3]:
                                   molecule  measured_metric    result
0  CC(C)n1cnc(-c2ccc(F)cc2)c1-c1nc(C(=O)Nc2ccc(N3CCNCC3)cc2)c[nH]1     IC50 at 72 h   40.5 µM
1  CC(C)n1cnc(-c2ccc(F)cc2)c1-c1nc(C(=O)Nc2ccc(N3CCN(CCO)CC3)cc2)c[nH]1     IC50 at 72 h  > 100 µM
2  CC(C)n1cnc(-c2ccc(F)cc2)c1-c1nc(C(=O)Nc2ccc(CCO)cc2)c[nH]1     IC50 at 72 h  > 100 µM
3  CC(C)n1cnc(-c2ccc(F)cc2)c1-c1nc(C(=O)Nc2ccc(CCC(=O)O)cc2)c[nH]1     IC50 at 72 h  > 100 µM
4  CC(C)n1cnc(-c2ccc(F)cc2)c1-c1nc(C(=O)Nc2ccc(N3CCN(CC(F)(F)F)CC3)cc2)c[nH]1     IC50 at 72 h  > 100 µM
5  CC1CN(c2ccc(NC(=O)c3c[nH]c(-c4c(-c5ccc(F)cc5)ncn4C(C)C)n3)cc2)CC(C)N1C (stereo not drawn)     IC50 at 72 h   12.3 µM
6  CC(C)n1cnc(-c2ccc(F)cc2)c1-c1nc(C(=O)Nc2ccc(C(=O)O)cc2)c[nH]1     IC50 at 72 h  > 100 µM
7  CC(C)n1cnc(-c2ccc(F)cc2)c1-c1nc(C(=O)Nc2ccc(N(CCO)CCO)cc2)c[nH]1     IC50 at 72 h  > 100 µM

Cited source for all entries: ChEMBL document CHEMBL6127114
